test system: VchCAST RNA-guided transposition machinery (E. coli BL21(DE3) host, lacZ target); assay: relative integration efficiency (T-RL orientation) vs wild-type transposon end (log2 (normalized fold change)); transposon end mutated: left end; higher = more efficient transposition
measured_property: relative integration efficiency (log2)

[[record]]
chain = "AATGTTGTTGATGCAACCATAAAGTGATATTTATAATTATTTATAATCAGCAACTTAACCACAAAACAACCATATATTGATATCTCACAAAACAACCATAAGTTGATATTTTTGTGAATCGAGTATTTCAGCAAAACTACTGCAGTAAGAAA"
result_value = -0.877

[[record]]
chain = "AATGTTGTTGATGCAACCATAAAGTGATATTTAATAATTATTTATACGACTACCAGGCCAACACCCCACCAACGCGCGGTCGCGAGACACCCCACCAACGCCTGGTCGCGGGGGTGTCCGATCTGATTTCAGCAAAACTACTGCAGTAAGAA"
result_value = -6.45

[[record]]
chain = "AATGTTGTTGATGCAACCATAAAGTGATATTTAATAACAACCATATATTGATATCTCACAAAACAACCATAAGTTGATATTTTTTATTTATAATCAGCAACTTAACCACAAAATGTGAATCGAGTATTTCAGCAAAACTACTGCAGTAAGAA"
result_value = -3.74

[[record]]
chain = "AATGTTGTTGATGCAACCATAAAGTGATATTTAATAATTATTTATAATCAGCAACTTAACCACAAAACAACCATATATTGATATCTCCACCCCACCAACGCCTGGTCGCGGGGGTGTCCGATCTGATTTCAGCAAAACTACTGCAGTAAGAA"
result_value = -2.45

